Target: T1, Cynomolgus CXCR2 (cynomolgus, UniProt Q28519 3-353 (rhesus entry))
T1 construct: On transfected HEK293T or RBL-2H3 cells; native on cynomolgus neutrophils in the WBSC assay; also called cCXCR2; cynoCXCR2
T1 chain: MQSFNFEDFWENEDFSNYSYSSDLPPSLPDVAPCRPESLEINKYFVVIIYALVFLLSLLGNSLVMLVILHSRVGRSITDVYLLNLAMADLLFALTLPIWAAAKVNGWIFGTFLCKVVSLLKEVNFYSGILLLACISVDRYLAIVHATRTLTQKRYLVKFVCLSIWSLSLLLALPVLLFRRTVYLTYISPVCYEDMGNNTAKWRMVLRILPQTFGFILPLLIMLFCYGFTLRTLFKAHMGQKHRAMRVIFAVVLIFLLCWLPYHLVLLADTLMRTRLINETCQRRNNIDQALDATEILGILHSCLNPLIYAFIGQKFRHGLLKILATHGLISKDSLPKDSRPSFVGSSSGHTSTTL
Assay: FACS competition vs 3 nM FMAT-Blue Gro-α
// reported log10 IC50 for each item listed
In our notation, the value equals log10 of IC50 in nM.

Some entries whose results are on file:
Lookup: What value of log10 IC50 has been recorded for this entry: 127D1 (VHH, Tested as periplasmic extract (pAX50) and as purified His6-tagged protein (pAX100); also called 127D01; not shown: C-terminal c-myc tag and His6 tag coded by the vector) VHH: EVQLVESGGGLVQAGESLRLSCAASGSTFDFKVMGWYRQPPGKQREGVAAIRLSGNMHYAESVKGRFTISKANAKNTVYLQMNSLRPEDTAVYYCKVNIRGQDYWGQGTQVTVSS
Found: 0.64

Lookup: What value of log10 IC50 has been recorded for this entry: 163E3 (VHH, Tested as periplasmic extract (pAX50) and as purified His6-tagged protein (pAX100); also called 163E03; not shown: C-terminal c-myc tag and His6 tag coded by the vector) VHH: EVQLVESGGGLVQPGGSLRLSCVASGRIFSSNAMGWFRQAPGKEREFVAAITWRSGGSAYYADSAKGRFTISRDNAKNTVYLQMNSLKPEDTAVYYCAAGGSSWLSFPPDYWGQGTQVTVSS
Found: 1.17

Lookup: What value of log10 IC50 has been recorded for this entry: 163D2 (VHH, Tested as periplasmic extract (pAX50) and as purified His6-tagged protein (pAX100); also called 163D02; not shown: C-terminal c-myc tag and His6 tag coded by the vector) VHH: EVQLVESGGGLVQAGGSLRLSCAASGRTFSDYAMGWFRQAPGKEREFVAAITWNGGRVFYTASVKGRFTISRDNAKNTMYLQMNSLKPEDTAVYYCAADKDRRTDYLGHPVAYWGQGTQVTVSS
Found: 1.17

Next:
Lookup: What value of log10 IC50 has been recorded for this entry: 97A9 (VHH, Tested as periplasmic extract (pAX50) and as purified His6-tagged protein (pAX100); also called 097A09; not shown: C-terminal c-myc tag and His6 tag coded by the vector) VHH: EVQLVESGGGLVQPGGSLRLSCVASGSIVRINTMGWYRQTPGKQRELVADITSGGNINYIDAVKGRFTISRDNTKNTVYLQMNSLKPEDTAVYYCNAEIVVLVGVWTQRARTGNYWGQGTQVTVSS
Found: 1.81

Lookup: What value of log10 IC50 has been recorded for this entry: 2B2 (VHH, Tested as periplasmic extract (pAX50) and as purified His6-tagged protein (pAX100); also called 002B02; not shown: C-terminal c-myc tag and His6 tag coded by the vector) VHH: EVQLVESGGELVQPGGSLRLSCAASGSILTINAMGWYRQAPGKQRELVVRRTRGGSTTYQDSVKGRFTISADIAKKTMYLQMNSLKPEDTAVYYCMLDDRGGVYWGQGTQVTVSS
Found: 1.50

Lookup: What value of log10 IC50 has been recorded for this entry: 54B12 (VHH, Tested as periplasmic extract (pAX50) and as purified His6-tagged protein (pAX100); also called 054B12; not shown: C-terminal c-myc tag and His6 tag coded by the vector) VHH: EVQLVESGGGLVQAGGSLTLSCAVSGSTFRINTMGWYRRAPGKQRELVAARDRGGYINYVDSVKGRFTVSRDNAKPTMYLQMNSLKPEDTAVYYCHAGTQDRTGRNFDRWGQGTQVTVSS
Found: 1.60
